# system_tested: FAD-linked sulfhydryl oxidase ALR (Homo sapiens) (UniProt P55789)
# Sequence (P55789 whole entry, looked up): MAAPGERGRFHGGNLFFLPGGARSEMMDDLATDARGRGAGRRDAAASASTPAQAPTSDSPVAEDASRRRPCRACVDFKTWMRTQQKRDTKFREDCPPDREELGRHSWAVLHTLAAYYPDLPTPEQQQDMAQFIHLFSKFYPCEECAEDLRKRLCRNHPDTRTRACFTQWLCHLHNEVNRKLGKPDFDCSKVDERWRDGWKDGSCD
# protocol_details: ALR-catalysed DTT oxidation blockers – biochemical, H2O2 detection, HRP-luminol luminescence, single point, primary screen (AID 485317)
# condition_set: purified ALR, concentration not given here
Out of some 290,000 compounds screened, about 11,000 (3.8%) were called active.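 The calls were made as follows: active = mean replicate inhibition above about 79%, with every replicate also reaching it (limit read from the data); inconclusive = only one of the two criteria met; inactive = mean below limit and not every replicate reaching it.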 Shown is part of a subset that was picked to be rich in actives.
A correct response names exactly one class from label 1 (active), label 0 (inactive)

Solved entries:
compound | system_tested | class_name
O=C(COC(=O)c1cccnc1Cl)Nc1ccc(S(=O)(=O)N2CCOCC2)cc1 | FAD-linked sulfhydryl oxidase ALR (Homo sapiens) (UniProt P55789) | label 0
COc1cccc(N2CCN(C(=O)C3CCCN(S(=O)(=O)c4cnc[nH]4)C3)CC2)c1 (centres undefined) | FAD-linked sulfhydryl oxidase ALR (Homo sapiens) (UniProt P55789) | label 1
O=C(CCC(=O)c1ccccc1)NCc1cccc(C(F)(F)F)c1 | FAD-linked sulfhydryl oxidase ALR (Homo sapiens) (UniProt P55789) | label 0

Per the records of this test, what outcome belongs to CCOC(=O)CSC1=C(C#N)C(c2sccc2C)CC(=O)N1 (centres undefined) ?
label 0

Try this compound too: "Cc1cccc(N2CCN(C(=O)C3CCN(S(=O)(=O)c4cnc[nH]4)CC3)CC2)c1C"
label 0

Try this compound too: CC1CCC(NC(=O)CNC(=O)c2ccc3ccccc3c2)CC1 (centres undefined)
label 0

###

# system_tested: FAD-linked sulfhydryl oxidase ALR (Homo sapiens)
# protocol_details: ALR-catalysed DTT oxidation blockers – biochemical, H2O2 detection, HRP-luminol luminescence, single point, primary screen (AID 485317)
# condition_set: purified ALR, concentration not given here
The whole screen tested about 290,000 compounds, of which about 11,000 (3.8%) were called active.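 The calls were made as follows: active = mean replicate inhibition above about 79%, with every replicate also reaching it (limit read from the data); inconclusive = only one of the two criteria met; inactive = mean below limit and not every replicate reaching it.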 For the sample, actives were picked, then their nearest neighbours and some compounds at random.
A correct response names exactly one class from active, inactive

Solved entries:
molecule | system_tested | class_name
Brc1cnc2ccccc2c1N1CCCCC1 | FAD-linked sulfhydryl oxidase ALR (Homo sapiens) | inactive
CCOC(=O)N1CCN(C(=O)c2ccc(S(=O)(=O)c3ccc(C)cc3)c(NC(C)=O)c2)CC1 | FAD-linked sulfhydryl oxidase ALR (Homo sapiens) | inactive
COc1ccc(CCNC(=O)COC(=O)C2CC2C)cc1 (stereo not given) | FAD-linked sulfhydryl oxidase ALR (Homo sapiens) | inactive
O=C(NCCc1ccccc1)c1ccc2c(c1)N(Cc1ccccc1)CCS2 | FAD-linked sulfhydryl oxidase ALR (Homo sapiens) | inactive
Cc1ccc(S(=O)(=O)N2[C@@H](c3cccc4ccccc34)C(C(=O)O)=C[C@H]2C(C)(C)C)cc1 | FAD-linked sulfhydryl oxidase ALR (Homo sapiens) | inactive
O=C(OCC1O[C@@H](OC(=O)c2cc(O)c(O)c(O)c2)[C@@H](OC(=O)c2cc(O)c(O)c(O)c2)[C@@H](OC(=O)c2cc(O)c(O)c(O)c2)[C@@H]1OC(=O)c1cc(O)c(O)c(O)c1)c1cc(O)c(O)c(O)c1 (stereo not given in full) | FAD-linked sulfhydryl oxidase ALR (Homo sapiens) | active
Cc1nc2c(c(C)nn2-c2ccccc2)c(C)c1C | FAD-linked sulfhydryl oxidase ALR (Homo sapiens) | inactive
S=C(NCC1CCCO1)N1CCN(c2ccc(Cl)c(Cl)c2)CC1 (stereo not given) | FAD-linked sulfhydryl oxidase ALR (Homo sapiens) | inactive
O=C(CNC(=O)C1COc2ccccc2O1)N/N=C/c1cc(Br)c(O)c(Br)c1 (stereo not given) | FAD-linked sulfhydryl oxidase ALR (Homo sapiens) | inactive

Per the records of this test, what outcome belongs to "Clc1ccc(-c2csc(-c3ccncc3)n2)cc1" ?
inactive
